system: MX-1 (breast carcinoma); experiment: Cytotoxicity/growth inhibition assay, MX-1; assay type: cell-based, human; details: MX-1 cells, 3 days culture, CellTiter-Glo, 0.1-200 μM tested; read-out: IC50 (MX-1)
pIC50: −log10 of the molar value.
pIC50 overview

| Compound | Readout Qualifier | pIC50 |
| --- | --- | --- |
| O=P(OCCS(=O)(=O)c1ncnc2[nH]cnc12)(N(CCCl)CCCl)N(CCCl)CCCl [Compound 125A] | = | 4.65 |
| O=C(O)c1ncccc1S(=O)(=O)CCOP(=O)(N(CCCl)CCCl)N(CCCl)CCCl [Compound 126A] | = | 4.69 |
| Nc1cccc(CS(=O)(=O)CCOP(=O)(N(CCCl)CCCl)N(CCCl)CCCl)c1 [Compound 141A] | = | 4.76 |
| O=C(Nc1cc(CS(=O)(=O)CCOP(=O)(N(CCCl)CCCl)N(CCCl)CCCl)cc(CS(=O)(=O)CCOP(=O)(N(CCCl)CCCl)N(CCCl)CCCl)c1)C1CCCNC1 (centres unmarked) [Compound 21B] | = | 4.83 |
| CC(C)(C)S(=O)(=O)CCOP(=O)(N(CCCl)CCCl)N(CCCl)CCCl | = | 4.69 |
| O=P(OCCS(=O)(=O)Cc1cccc(CS(=O)(=O)CCOP(=O)(N(CCCl)CCCl)N(CCCl)CCCl)c1)(N(CCCl)CCCl)N(CCCl)CCCl [Compound 14B] | = | 5.64 |
| NC(=O)[C@@H](N)CS(=O)(=O)CCOP(=O)(N(CCCl)CCCl)N(CCCl)CCCl [Compound 78A] | = | 4.73 |
| O=P(OCCS(=O)(=O)Cc1cccc(C(F)(F)F)c1)(N(CCCl)CCCl)N(CCCl)CCCl [Compound 133A] | = | 5.57 |
| NC(=O)C(CC(=O)O)NC(=O)CS(=O)(=O)CCOP(=O)(N(CCCl)CCCl)N(CCCl)CCCl (centres unmarked) [Compound 61A] | = | 4.51 |
| CC(C(C)S(=O)(=O)CCOP(=O)(N(CCCl)CCCl)N(CCCl)CCCl)S(=O)(=O)CCOP(=O)(N(CCCl)CCCl)N(CCCl)CCCl (centres unmarked) | ≤ | 3.70 |
| CC(C)C(NC(=O)CS(=O)(=O)CCOP(=O)(N(CCCl)CCCl)N(CCCl)CCCl)C(=O)O (centres unmarked) [Compound 63A] | = | 5.00 |
| O=C(NCCCN1CCOCC1)c1ccc(CS(=O)(=O)CCOP(=O)(N(CCCl)CCCl)N(CCCl)CCCl)cc1 [Compound 175A] | = | 4.74 |
| O=C(O)c1cccc(S(=O)(=O)CCOP(=O)(N(CCCl)CCCl)N(CCCl)CCCl)c1 [Compound 119A] | = | 4.49 |
| COC(=O)c1ccc(CS(=O)(=O)CCOP(=O)(N(CCCl)CCCl)N(CCCl)CCCl)cc1 [Compound 140A] | = | 4.92 |
| O=P(OCCS(=O)(=O)Cc1ccc(CS(=O)(=O)CCOP(=O)(N(CCCl)CCCl)N(CCCl)CCCl)cc1)(N(CCCl)CCCl)N(CCCl)CCCl [Compound 15B] | = | 5.85 |
| N[C@@H](CS(=O)(=O)CCOP(=O)(N(CCCl)CCCl)N(CCCl)CCCl)C(=O)N1CCOCC1 [Compound 87A] | = | 4.71 |
| O=P(OCCS(=O)(=O)Cc1ccccn1)(N(CCCl)CCCl)N(CCCl)CCCl [Compound 181A] | = | 5.08 |
| O=P(OCCS(=O)(=O)c1cccc(C(F)(F)F)c1)(N(CCCl)CCCl)N(CCCl)CCCl [Compound 116A] | = | 5.51 |
| Cc1c(O)c(CO)c(CS(=O)(=O)CCOP(=O)(N(CCCl)CCCl)N(CCCl)CCCl)c[n+]1[O-] [Compound 184A] | = | 4.54 |
| CN(C)CCNC(=O)c1ccc(CS(=O)(=O)CCOP(=O)(N(CCCl)CCCl)N(CCCl)CCCl)cc1 [Compound 173A] | = | 3.98 |
| O=C(NCc1ccccc1)c1ccc(CS(=O)(=O)CCOP(=O)(N(CCCl)CCCl)N(CCCl)CCCl)cc1 [Compound 161A] | = | 5.13 |
| CS(=O)(=O)N[C@@H](CS(=O)(=O)CCOP(=O)(N(CCCl)CCCl)N(CCCl)CCCl)C(=O)N1CCN(C(=O)c2ccco2)CC1 [Compound 98A] | = | 4.55 |
| CN(C)C(=O)c1ccc(CS(=O)(=O)CCOP(=O)(N(CCCl)CCCl)N(CCCl)CCCl)cc1 [Compound 155A] | = | 5.59 |
| O=C(Nc1cccc(CS(=O)(=O)CCOP(=O)(N(CCCl)CCCl)N(CCCl)CCCl)c1)C1CCCNC1 (centres unmarked) [Compound 148A] | ≤ | 3.70 |
| CC(C)NC(=O)[C@@H](N)CS(=O)(=O)CCOP(=O)(N(CCCl)CCCl)N(CCCl)CCCl [Compound 89A] | = | 4.65 |
| O=C(O)CCNC(=O)CS(=O)(=O)CCOP(=O)(N(CCCl)CCCl)N(CCCl)CCCl [Compound 39A] | = | 4.51 |
| COCCNC(=O)CS(=O)(=O)CCOP(=O)(N(CCCl)CCCl)N(CCCl)CCCl [Compound 48A] | = | 5.36 |
| CC(C)(C)OC(=O)CC(NC(=O)CS(=O)(=O)CCOP(=O)(N(CCCl)CCCl)N(CCCl)CCCl)C(N)=O (centres unmarked) [Compound 41A] | = | 4.53 |
| O=P(OCCS(=O)(=O)c1ncc2nc[nH]c2n1)(N(CCCl)CCCl)N(CCCl)CCCl [Compound 127A] | = | 4.82 |

* * *

log10 IC50 overview
tested on: MX-1 (breast carcinoma); assay: Cytotoxicity/growth inhibition assay, MX-1; type: cell-based, human; conditions: MX-1 cells, 3 days culture, CellTiter-Glo, 0.1-200 μM tested; read-out: IC50 (MX-1)
Measurement Name: log10 IC50 (log10 of the value in µM)

| Molecule | Reported Result |
| --- | --- |
| CC(C)S(=O)(=O)CCOP(=O)(N(CCCl)CCCl)N(CCCl)CCCl | 1.38 |
| CC(C)CS(=O)(=O)CCOP(=O)(N(CCCl)CCCl)N(CCCl)CCCl | 0.66 |
| O=C(c1ccc(CS(=O)(=O)CCOP(=O)(N(CCCl)CCCl)N(CCCl)CCCl)cc1)N1CCC(O)C1 (stereo not drawn) [Compound 165A] | 1.34 |
| O=C(NCc1ccccc1)[C@H](CS(=O)(=O)CCOP(=O)(N(CCCl)CCCl)N(CCCl)CCCl)NS(=O)(=O)c1ccccc1 [Compound 91A] | 1.03 |
| O=C(NCCO)c1ccc(CS(=O)(=O)CCOP(=O)(N(CCCl)CCCl)N(CCCl)CCCl)cc1 [Compound 160A] | 1.52 |
| O=[N+]([O-])c1cccc(CS(=O)(=O)CCOP(=O)(N(CCCl)CCCl)N(CCCl)CCCl)c1 [Compound 138A] | 1.23 |
| O=P(OCCS(=O)(=O)CCCCS(=O)(=O)CCOP(=O)(N(CCCl)CCCl)N(CCCl)CCCl)(N(CCCl)CCCl)N(CCCl)CCCl | 0.61 |
| O=P(OCCS(=O)(=O)Cc1ccccc1CS(=O)(=O)CCOP(=O)(N(CCCl)CCCl)N(CCCl)CCCl)(N(CCCl)CCCl)N(CCCl)CCCl [Compound 13B] | 0.28 |
| CNC(=O)CCS(=O)(=O)CCOP(=O)(N(CCCl)CCCl)N(CCCl)CCCl [Compound 53A] | 1.05 |
| N[C@@H](CS(=O)(=O)CCOP(=O)(N(CCCl)CCCl)N(CCCl)CCCl)C(=O)NCCO [Compound 88A] | 1.25 |
| O=C(O)CNC(=O)CS(=O)(=O)CCOP(=O)(N(CCCl)CCCl)N(CCCl)CCCl [Compound 40A] | 1.51 |
| N[C@@H](CCS(=O)(=O)CCOP(=O)(N(CCCl)CCCl)N(CCCl)CCCl)C(=O)O [Compound 77A] | 1.33 |
| O=P(OCCS(=O)(=O)CCO)(N(CCCl)CCCl)N(CCCl)CCCl [Compound 16A] | 1.11 |
| O=C(O)[C@@H]1CCCN1C(=O)CS(=O)(=O)CCOP(=O)(N(CCCl)CCCl)N(CCCl)CCCl [Compound 62A] | 1.18 |
| O=C(O)CCS(=O)(=O)CCOP(=O)(N(CCCl)CCCl)N(CCCl)CCCl [Compound 29A] | 1.36 |

* * *

pIC50 overview
tested on: MX-1 (breast carcinoma); experiment: Cytotoxicity/growth inhibition assay, MX-1; format: cell-based, human; details: MX-1 cells, 3 days culture, CellTiter-Glo, 0.1-200 μM tested; read-out: IC50 (MX-1)
pIC50: −log10 of the molar value.
Measurement Name: pIC50

| Molecule | Reported Result |
| --- | --- |
| CC(C)(C)OC(=O)CNC(=O)CS(=O)(=O)CCOP(=O)(N(CCCl)CCCl)N(CCCl)CCCl [Compound 38A] | 5.10 |
| O=C(O)CCC(=O)Nc1cccc(CS(=O)(=O)CCOP(=O)(N(CCCl)CCCl)N(CCCl)CCCl)c1 [Compound 142A] | 4.65 |
| CC(C)(C)OC(=O)N[C@@H](CS(=O)(=O)CCOP(=O)(N(CCCl)CCCl)N(CCCl)CCCl)C(=O)NCCO [Compound 86A] | 4.60 |
| Cc1cnc(S(=O)(=O)CCOP(=O)(N(CCCl)CCCl)N(CCCl)CCCl)nc1 [Compound 123A] | 5.05 |
| O=C(CS(=O)(=O)CCOP(=O)(N(CCCl)CCCl)N(CCCl)CCCl)N1CCN(CCO)CC1 [Compound 69A] | 4.46 |
| CCS(=O)(=O)CCOP(=O)(N(CCCl)CCCl)N(CCCl)CCCl | 4.77 |
| Cc1cccc(CS(=O)(=O)CCOP(=O)(N(CCCl)CCCl)N(CCCl)CCCl)c1 [Compound 129A] | 5.15 |
| Cc1ccc(CS(=O)(=O)CCOP(=O)(N(CCCl)CCCl)N(CCCl)CCCl)cc1 [Compound 130A] | 5.19 |
